Molecular target: Beta-3 adrenergic receptor (Homo sapiens, UniProt P13945)
Sequence (P13945 whole entry): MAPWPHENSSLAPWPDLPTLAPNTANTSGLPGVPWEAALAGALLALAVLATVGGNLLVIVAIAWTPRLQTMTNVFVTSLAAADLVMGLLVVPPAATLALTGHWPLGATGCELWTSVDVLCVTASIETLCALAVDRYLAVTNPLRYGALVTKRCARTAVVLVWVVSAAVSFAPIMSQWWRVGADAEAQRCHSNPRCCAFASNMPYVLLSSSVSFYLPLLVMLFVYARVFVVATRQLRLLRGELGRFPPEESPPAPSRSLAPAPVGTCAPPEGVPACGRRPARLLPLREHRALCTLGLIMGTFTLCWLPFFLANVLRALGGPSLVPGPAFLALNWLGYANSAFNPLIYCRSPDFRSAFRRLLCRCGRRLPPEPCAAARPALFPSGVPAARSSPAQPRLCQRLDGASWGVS
Assay: Agonist activity at human adrenergic beta-3 receptor expressed in CHO cells assessed as cAMP production
MEASURED PARAMETER: pEC50
Just the number, please; pEC50 means minus log10 of the concentration in mol/L.

For record "COCc1nc(-c2ccc(OCCNC[C@H](O)c3cccnc3)cc2)co1" the listed pEC50 is 7.33

Briefly, pEC50 measured for "O[C@@H](CNCCOc1ccc(-c2csc(-c3cccnc3)n2)cc1)c1cccnc1" : 6.92

pEC50 measured on "CCc1nc(-c2ccc(CCNC[C@H](O)c3cccnc3)cc2)cs1" = 5.65

Documented pEC50 of "CC(C)c1nc(-c2ccc(OCCNC[C@H](O)c3cccnc3)cc2)co1" : 7.24

Input "CCc1nc(-c2ccc(OCCNC[C@H](O)c3cccnc3)cc2)cs1" . Output pEC50: 6.77

Entry "Cc1nc(-c2ccc(CCNC[C@H](O)c3ccc(Cl)c(NS(C)(=O)=O)c3)cc2)cs1" , pEC50 reported as 6.64
